Data origin, for the record: the supplement of paper PMC10567573

Entries and their protein stability index values follow.
B1: ZNF207 (parent)
chain: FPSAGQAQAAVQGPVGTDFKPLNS

# Variants of: B1
# procedureDetails: protein stability index of a GFP-peptide fusion (GPS, HEK-293T) (PSI 1-6); higher = more stable;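 also: lentivirally expressed fusions sorted by FACS into six bins by GFP to DsRed ratio, PSI derived from sequencing read proportions per bin multiplied by bin number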
# recordedConditions: c terminus: a fixed tail appended
recordedEndpoint: protein stability index

[[record]]
variantname = "F1Q"
resultvalue = 5.11

[[record]]
variantname = "A10P"
resultvalue = 3.25

[[record]]
variantname = "V11E"
resultvalue = 3.84

[[record]]
variantname = "G16V"
resultvalue = 3.25

[[record]]
variantname = "S3L"
resultvalue = 4.05

[[record]]
variantname = "D18E"
resultvalue = 3.63

[[record]]
variantname = "P14Q"
resultvalue = 3.62

[[record]]
variantname = "N23G"
resultvalue = 3.07

[[record]]
variantname = "P2N"
resultvalue = 4.11

[[record]]
variantname = "V15P"
resultvalue = 3.63

[[record]]
variantname = "P14M"
resultvalue = 3.22

[[record]]
variantname = "F19P"
resultvalue = 3.29

[[record]]
variantname = "F1C"
resultvalue = 4.68

[[record]]
variantname = "P21K"
resultvalue = 3.69

[[record]]
variantname = "Q8T"
resultvalue = 3.47

[[record]]
variantname = "D18N"
resultvalue = 3.79

[[record]]
variantname = "Q6G"
resultvalue = 3.65

[[record]]
variantname = "Q12L"
resultvalue = 2.67

[[record]]
variantname = "Q6I"
resultvalue = 2.72

[[record]]
variantname = "P2A"
resultvalue = 3.46

[[record]]
variantname = "V11M"
resultvalue = 3.36

[[record]]
variantname = "S24K"
resultvalue = 3.71

[[record]]
variantname = "K20D"
resultvalue = 4.07

[[record]]
variantname = "S3T"
resultvalue = 4

[[record]]
variantname = "S3W"
resultvalue = 3.44

[[record]]
variantname = "S3V"
resultvalue = 3.61

[[record]]
variantname = "G16Y"
resultvalue = 2.9

[[record]]
variantname = "A7S"
resultvalue = 3.87

[[record]]
variantname = "S3D"
resultvalue = 4.27

[[record]]
variantname = "A10Q"
resultvalue = 3.42

[[record]]
variantname = "T17N"
resultvalue = 3.65

[[record]]
variantname = "S24P"
resultvalue = 3.54

[[record]]
variantname = "K20C"
resultvalue = 3.85

[[record]]
variantname = "V15E"
resultvalue = 3.77

[[record]]
variantname = "D18Q"
resultvalue = 3.02

[[record]]
variantname = "A9I"
resultvalue = 2.86

[[record]]
variantname = "G13Q"
resultvalue = 3.09

[[record]]
variantname = "P2T"
resultvalue = 2.17

[[record]]
variantname = "G13R"
resultvalue = 3.5

[[record]]
variantname = "D18W"
resultvalue = 2.51

[[record]]
variantname = "A10G"
resultvalue = 3.72

[[record]]
variantname = "A7Q"
resultvalue = 3.5

[[record]]
variantname = "P14A"
resultvalue = 3.47

[[record]]
variantname = "K20L"
resultvalue = 3.2

[[record]]
variantname = "P2I"
resultvalue = 2.89

[[record]]
variantname = "S3R"
resultvalue = 2.83

[[record]]
variantname = "L22H"
resultvalue = 4.15

[[record]]
variantname = "D18K"
resultvalue = 2.99

[[record]]
variantname = "V11F"
resultvalue = 2.58

[[record]]
variantname = "K20R"
resultvalue = 3.49

[[record]]
variantname = "G13I"
resultvalue = 3.22

[[record]]
variantname = "F19H"
resultvalue = 3.77

[[record]]
variantname = "Q12T"
resultvalue = 3.61

[[record]]
variantname = "A10V"
resultvalue = 2.99

[[record]]
variantname = "D18M"
resultvalue = 2.85

[[record]]
variantname = "F1Y"
resultvalue = 3.29

[[record]]
variantname = "P21V"
resultvalue = 2.87

[[record]]
variantname = "V11Y"
resultvalue = 3

[[record]]
variantname = "K20Y"
resultvalue = 2.79

[[record]]
variantname = "V15K"
resultvalue = 3.58

[[record]]
variantname = "V11K"
resultvalue = 3.45

[[record]]
variantname = "A9R"
resultvalue = 3.47

[[record]]
variantname = "V11D"
resultvalue = 3.68

[[record]]
variantname = "P14D"
resultvalue = 4.01

[[record]]
variantname = "G5P"
resultvalue = 4.07

[[record]]
variantname = "T17D"
resultvalue = 4.02

